experiment: cytotoxicity in HPDE-C7 cells, cell-based, fluorescence, HTS (AID 430); conditions: HPDE-C7 pancreatic duct cells viability, at 10 µM, active compounds read high;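 note: cells exposed to compound for 48 hours before viability readout; 0% = vehicle and 100% = reference cytotoxic drug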
Hit rate of the full screen: of about 63,000 compounds, about 1,100 (1.7%) were called active. What follows is part of a selection rich in actives, with near analogues and random picks from the rest. Potency and affinity values are given separately.
Item-by-item account of cytotoxicity

| compound | scaleUnit | cytotoxicity |
| --- | --- | --- |
| c1ccc(Nc2nc(N3CCOCC3)nc(N3CCOCC3)n2)cc1 | % | 3.2 |
| Cc1ccccc1-n1c(C)nnc1SCC(=O)N1CC(=O)Nc2ccccc21 | % | 4.2 |
| CN(C)c1ccc(-c2nn3c(-c4ccccc4Cl)nnc3s2)cc1 | % | 63.8 |
| Cc1ccc(NC(=O)c2ccco2)cc1C | % | -2.6 |
| Cc1nn2c(-c3ccc(Cl)cc3Cl)nnc2s1 | % | -9.3 |
| O=C(Nc1c(F)cc(F)cc1Br)c1cc(-c2ccco2)on1 | % | 58.5 |
| c1ccc(Nc2nc(N3CCCCC3)nc(N3CCNCC3)n2)cc1 | % | 71.8 |
| CCOC(=O)c1cnc(SCC(=O)Nc2nnc(CC)s2)nc1N | % | -4.3 |
| Cc1ccc(-n2cc(-c3ccccc3)[nH]c2=O)cc1F | % | -20.5 |
| CSCCC(C(=O)Nc1ccc2c(c1)OCO2)N1C(=O)c2ccccc2C1=O (stereo unspecified) | % | 0.6 |
| Cc1nc2ccccc2c2oc(C(=O)N3CCc4ccccc43)cc12 | % | 0.3 |
| C1CCN(c2nc(N3CCCCC3)nc(N3CCNCC3)n2)CC1 | % | 2.9 |
| CN(C)/C=C1\N=C(c2ccc3c(c2)OCO3)OC1=O | % | -1.7 |
| CC1CC(=O)N(CC(=O)N2CCCC2)c2ccccc2S1 (stereo unspecified) | % | -19.6 |
| CN(C)c1ccc(-c2nn3c(-c4ccc(Cl)cc4)nnc3s2)cc1 | % | -15.9 |
| Cc1nc(Nc2ccc(F)cc2)[nH]c(=O)c1CCC(C)C | % | 62.1 |
| O=C(Nc1cc(C(F)(F)F)ccc1N1CCOCC1)c1ccco1 | % | 1.1 |
| O=C(O)c1c(-c2ccccc2)c2oc3ccccc3c2[nH]c1=O | % | 89.7 |
| CN(C)c1ccc(-c2nn3c(-c4ccc(Cl)cc4Cl)nnc3s2)cc1 | % | 60.2 |
| O=C(Nc1ccc(F)cc1F)c1cc(-c2ccco2)on1 | % | -5.3 |
| CCC(=O)Nc1cc(-c2nn(C)c(=O)c3ccccc23)ccc1N1CCCCC1 | % | 5.4 |
| O=C(c1ccccc1)N1CCCCC(Sc2nnnn2-c2ccccc2)C1=O (stereo unspecified) | % | -6.2 |
| Cc1nc(Nc2ccccc2)[nH]c(=O)c1CCC(C)C | % | -16.8 |
| Cc1cc(=O)[nH]c(SC/C=C/c2ccccc2)n1 | % | -13.4 |
| Cc1cccc(Nc2nc(NCc3ccco3)nc(N3CCOCC3)n2)c1 | % | 53 |
| CC(C)N=c1cc2n(-c3ccc(Cl)cc3)c3ccccc3nc-2cc1Nc1ccc(Cl)cc1 | % | 83.5 |
| O=C(Nc1c(F)cc(F)cc1Br)c1cc(-c2ccc(O)cc2)on1 | % | 54.4 |
| CSc1cccc(-n2cc(-c3ccc4c(c3)OCO4)[nH]c2=O)c1 | % | 52.8 |
| Cn1c(CNc2ccc(Cl)cc2)nc2ccccc21 | % | -13 |
| COc1ccc(S(=O)(=O)N2CCCC2C(=O)Nn2cnnc2)cc1 (stereo unspecified) | % | -10.2 |
| COc1ccccc1-c1nnc2sc(-c3ccc(N(C)C)cc3)nn12 | % | 44.4 |
| Cc1onc(-c2ccccc2)c1C(=O)Nc1ccccc1N1CCOCC1 | % | 4.9 |
| Cc1cccc2cc(C#N)c(SCC(=O)N3CC(=O)Nc4ccccc43)nc12 | % | 53.4 |
| CCCCCc1c(C)nc(NCc2ccccc2)[nH]c1=O | % | -8.7 |
| O=C(Nc1cc(C(F)(F)F)ccc1N1CCOCC1)c1c(F)c(F)c(F)c(F)c1F | % | 51 |
| CCOC(=O)CNC(=O)C(Cc1ccccc1)NS(=O)(=O)c1cccs1 (stereo unspecified) | % | 2.5 |
| Cc1ccc(Nc2nc(C)c(CCC(C)C)c(=O)[nH]2)cc1 | % | 7.1 |
| OC(Cn1ccnc1)c1ccc(Cl)cc1Cl (stereo unspecified) | % | -4.5 |
| Cc1ccc(S(=O)(=O)N2CCN(C(=O)COC(=O)COc3ccccc3)CC2)cc1 | % | 7.4 |
| CC(C)c1ccc(Nc2nc(NCc3ccco3)nc(N3CCOCC3)n2)cc1 | % | 27.5 |
| COC(=O)Cc1cc(=O)n2[nH]c(C)nc2n1 | % | -15.9 |
| CC(=O)Nc1cc(C(F)(F)F)ccc1N1CCOCC1 | % | 14.9 |
| Cn1cc(C(=O)NC2CCCCCC2)c(=O)c2cc(S(=O)(=O)N3CCCC3)ccc21 | % | -2.6 |
| Cn1cc(C(=O)NC2CCCCC2)c(=O)c2cc(S(=O)(=O)N3CCCC3)ccc21 | % | 6.5 |
| O=C(Nc1cc(C(F)(F)F)ccc1N1CCOCC1)c1cccnc1 | % | 4.3 |
| Cc1ccc(S(=O)(=O)N2CCN(C(=O)C3CCCCC3)CC2)cc1 | % | 7.7 |

====

assay: cytotoxicity in HPDE-C7 cells, cell-based, fluorescence, HTS (AID 430); conditions: HPDE-C7 pancreatic duct cells viability, at 10 µM;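 note: cells exposed to compound for 48 hours before viability readout; 0% = vehicle and 100% = reference cytotoxic drug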
In all, about 63,000 compounds went through this assay and about 1,100 (1.7%) were called active. No stated cut-off is given here; in the data, active means cytotoxicity above about 50%; inactive means the rest. What follows is part of a selection rich in actives, with near analogues and random picks from the rest. Potency and affinity values are given separately.
Outcomes: active, inactive

| molecule | assignedLabel |
| --- | --- |
| O=c1[nH]c(CSc2nc3ccccc3o2)nc2c1cnn2-c1ccccc1 | inactive |
| COc1ccc(NC(=O)c2cc(-c3cc(C)cc(C)c3O)n[nH]2)cc1Cl | active |
| CC(C)NC(=O)Cn1c(SCC(=O)N2CCc3ccccc3C2)nc2ccccc21 | active |
| CSc1cccc(NC(=O)CN(C2CCCCC2)S(C)(=O)=O)c1 | inactive |
| O=C1c2[nH]nc(-c3ccccc3O)c2C(c2ccccc2)N1Cc1ccco1 (configuration not stated) | inactive |
| COc1cc(OC)cc(C(=O)Nc2ccccc2N2CCOCC2)c1 | inactive |
| Cc1cc(O)c(-c2cc(C(=O)Nc3ccc(S(=O)(=O)N4CCOCC4)cc3)[nH]n2)cc1C | inactive |
| O=C(CSc1n[nH]c(-c2ccccc2O)n1)N1CCCc2ccccc21 | inactive |
| CC(C)NC(=O)Cn1c(SCC(=O)N2CCCc3ccccc32)nc2ccccc21 | inactive |
| CCCCCC(=O)Nc1ccc(Cl)cn1 | inactive |
| O=C(c1ccc(Cn2cc(Br)cn2)cc1)N1CCN(c2ccccc2)CC1 | active |
| O=C(c1ccc(Cn2cc(Cl)cn2)cc1)N1CCN(c2ccccc2)CC1 | inactive |
| COc1ccc(OC)c(NC(=O)c2cc(-c3cc(Cl)ccc3O)n[nH]2)c1 | inactive |
| CCOC(=O)/C=C1\NC(C)(C)Cc2cc(OC)c(O)cc21 | inactive |
| COc1ccc(C)cc1NC(=O)C1CCCN(S(=O)(=O)c2cnc[nH]2)C1 (configuration not stated) | inactive |
| O=C(Nc1ccncc1)C1CCCN(S(=O)(=O)c2cccc3cccnc23)C1 (configuration not stated) | active |
| Cc1cccc(NC(=O)C2CCCN(S(=O)(=O)c3cccc4cccnc34)C2)c1 (configuration not stated) | inactive |
| O=C1c2ccccc2NC(c2ccc(F)cc2)N1Cc1ccco1 (configuration not stated) | inactive |
| COc1ccc(CN(C(=O)c2ccccc2OC)C2CCS(=O)(=O)C2)cc1 (configuration not stated) | inactive |
| Cc1ccc2c(c1)c1c3n2CCN(C(=O)C2CC2)C3CCC1 (configuration not stated) | inactive |
| CC(C)NC(=O)Cn1c(SCC(=O)N2CCCCCC2)nc2ccccc21 | inactive |
| Cc1ccc2c(c1)c1c3n2CCN(C(=O)CN2CCN(C)CC2)C3CCC1 (configuration not stated) | inactive |

====

experiment: cytotoxicity in HPDE-C7 cells, cell-based, fluorescence, HTS (AID 430); conditions: HPDE-C7 pancreatic duct cells viability, at 10 µM, active compounds read high;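 note: cells exposed to compound for 48 hours before viability readout; 0% = vehicle and 100% = reference cytotoxic drug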
The campaign covered roughly 63,000 compounds. About 1,100 (1.7%) were called active. This is one part of a sample in which actives are shown more often than they occur. Results with a measured potency or affinity are listed apart.

| compound | cytotoxicity (%) |
| --- | --- |
| Cc1ccc(NC(=O)CC(O)(C(F)(F)F)C(F)(F)F)c(Br)c1 | -3.8 |
| O=C(CSc1c2c(nc3ccc(Cl)cc13)CCCC2)N1CCN(C(=O)c2ccco2)CC1 | 106 |
| CCOC(=O)n1ccc(C(=O)Nc2ccccc2F)n1 | -0.9 |
| O=C(CSc1nc2cc(Cl)ccc2s1)N1CCN(C(=O)c2ccco2)CC1 | -2.2 |
| CCCSC1=C(C#N)C(c2ccccc2C)CC(=O)N1 (stereo unspecified) | 10.1 |
| O=C(CSc1nnc(SCc2ccc(Cl)cc2)s1)N1CCN(C(=O)c2ccco2)CC1 | -25.8 |
| CCOC(=O)Cc1nnc2c(Nc3ccccc3F)nc3nonc3n12 | 61.6 |
| CCOC(=O)Cc1nnc2c(Nc3ccc(C)cc3)nc3nonc3n12 | -35.8 |
| CCOC(=O)Cn1nc(-c2ccc(Cl)cc2)cc1N | 10.3 |
| CCOC(=O)Cc1nnc2c(Nc3ccc(Cl)cc3)nc3nonc3n12 | 68.3 |
| Cc1ccc(Cl)cc1NC(=O)CC(O)(C(F)(F)F)C(F)(F)F | 51.2 |
